The following variants are shown together with reported self-cleavage kobs at 10000 uM GlcN6P values.
B1: glmS ribozyme (parent)
chain: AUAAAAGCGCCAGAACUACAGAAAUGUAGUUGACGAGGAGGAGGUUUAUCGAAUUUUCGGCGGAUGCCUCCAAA

- Variants of: B1
- Assay Overview: self-cleavage kobs at 10000 uM GlcN6P; higher = faster cleavage; RNA array
- Measurement Setup: with glucosamine-6-phosphate
Variants at the floor of the assay were thinned out.
Give the value in s⁻¹ but do not write s⁻¹ after it.

Summary for this variant, C11U A15C : self-cleavage kobs at 10000 uM GlcN6P is 0.000585
